pIC50 listing for selected molecules.
tgt: Calpain 1 (Homo sapiens)
Sequence (P04632 whole entry): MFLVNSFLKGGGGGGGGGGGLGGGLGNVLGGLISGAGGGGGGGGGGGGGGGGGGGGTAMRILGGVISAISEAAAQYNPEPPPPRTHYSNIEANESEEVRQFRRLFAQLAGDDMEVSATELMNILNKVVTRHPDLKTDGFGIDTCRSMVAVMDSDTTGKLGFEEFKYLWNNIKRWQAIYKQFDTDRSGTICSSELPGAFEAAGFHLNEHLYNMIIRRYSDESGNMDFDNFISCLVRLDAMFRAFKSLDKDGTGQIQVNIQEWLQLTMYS
Sequence (P07384 whole entry): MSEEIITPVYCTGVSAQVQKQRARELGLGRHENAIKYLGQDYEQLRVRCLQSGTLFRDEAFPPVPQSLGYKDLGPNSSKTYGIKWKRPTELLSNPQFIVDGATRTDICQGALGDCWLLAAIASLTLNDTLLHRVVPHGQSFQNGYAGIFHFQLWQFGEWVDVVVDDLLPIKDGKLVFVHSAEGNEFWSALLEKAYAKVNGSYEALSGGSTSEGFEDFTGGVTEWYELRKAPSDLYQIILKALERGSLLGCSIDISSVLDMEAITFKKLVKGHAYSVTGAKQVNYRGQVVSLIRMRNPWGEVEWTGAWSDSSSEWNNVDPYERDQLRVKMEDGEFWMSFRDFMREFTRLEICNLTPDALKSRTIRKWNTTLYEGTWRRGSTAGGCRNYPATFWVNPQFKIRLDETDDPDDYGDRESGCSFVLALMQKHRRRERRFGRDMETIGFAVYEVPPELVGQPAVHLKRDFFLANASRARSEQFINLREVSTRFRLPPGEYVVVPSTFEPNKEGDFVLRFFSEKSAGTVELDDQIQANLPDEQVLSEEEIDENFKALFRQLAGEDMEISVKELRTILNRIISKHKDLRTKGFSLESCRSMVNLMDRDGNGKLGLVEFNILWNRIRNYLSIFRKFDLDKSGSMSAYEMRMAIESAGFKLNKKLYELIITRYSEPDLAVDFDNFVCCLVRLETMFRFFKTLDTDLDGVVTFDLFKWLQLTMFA
test.description: Inhibition of Calpain 1 by [3H]acetyl-casein assay
pIC50: −log10 of the molar value. Square brackets hold non-standard residues; d marks the D form. Peptide text beside a SMILES is read from it. * marks the point of attachment. ξ: configuration not given here. tBuAla = CC(C)(C)C[C@H](N)C(=O)O; Ile(3ξ) = CCC(C)[C@H](N)C(=O)O; Cbz = O=C(OCc1ccccc1)*
endpoint.name: pIC50

1) COc1ccc(C[C@@H](C=O)NC(=O)[C@@H](NC(=O)OCc2ccccc2)C(C)C)cc1 (Cbz-Val-Tyr(Me)-aldehyde) ... 7.52
2) C[C@H](NC(=O)OCc1ccccc1)C(=O)N[C@H](C=O)Cc1ccccc1 ... 6.85
3) CCC(C)[C@H](NC(=O)OCc1ccccc1)C(=O)N[C@H](C=O)Cc1ccc(O)cc1 (some centres undefined) (Cbz-[Ile(3ξ)]-Tyr-aldehyde) ... 7.26
4) CC(C)(C)C[C@H](NC(=O)OCc1ccccc1)C(=O)N[C@H](C=O)Cc1ccccc1 (Cbz-[tBuAla]-Phe-aldehyde) ... 7.00
